# System: A-549
# EXPERIMENT: SRB colorimetric assay of cell growth and viability, A-549
# Format: cell-based, human
# CONDITION_DESCRIPTION: A-549; 48 hours exposure; read-out: LC50 A-549
Where a SMILES comes first, the peptide text is derived from it. Bridges are numbered along the chain shown (N, C = ends). [ ]: non-standard residue; d: D form. The star is where a group is joined. d(aIle) = CC[C@H](C)[C@@H](N)C(=O)O; d(aThr) = C[C@@H](O)[C@@H](N)C(=O)O; Hexanoyl(5-Me) = CC(C)CCCC(=O)*; Orn = NCCC[C@H](N)C(=O)O; Dhb = C/C=C(\N)C(=O)O

# MOLECULE, CC50
records = [
    ("C/C=C1\\NC(=O)[C@H](Cc2ccccc2)NC(=O)[C@@H](C(C)C)NC(=O)[C@@H]([C@@H](C)CC)NC(=O)[C@H](NC(=O)[C@H](NC(=O)[C@H](CCCN)NC(=O)[C@@H]2CCCN2C(=O)[C@H](NC(=O)[C@@H](NC(=O)[C@@H](NC(=O)[C@H](NC(=O)CC[C@@H](C)CC)C(C)C)[C@@H](C)O)C(C)C)C(C)C)[C@@H](C)CC)[C@@H](C)OC(=O)[C@H](C(C)C)NC1=O [Compound 59, [Pro^9, (4S)-MeHex^14]-KF]", "≥ 6.76 µM"),
    ("C/C=C1\\NC(=O)[C@H](Cc2ccccc2)NC(=O)[C@@H](C(C)C)NC(=O)[C@@H]([C@@H](C)CC)NC(=O)[C@H](NC(=O)[C@H](NC(=O)[C@H](CCCN)NC(=O)[C@H]2CCCN2C(=O)[C@H](NC(=O)[C@@H](NC(=O)[C@H](C)NC(=O)[C@H](NC(=O)CCCC(C)C)C(C)C)C(C)C)C(C)C)[C@@H](C)CC)[C@@H](C)OC(=O)[C@H](C(C)C)NC1=O [Compound 112, [Ala^12]-KF] ({Hexanoyl(5-Me)}-[dV]AV[dV][dP][Orn][d(aIle)][d(aThr)][d(aIle)][dV]F[Dhb]V; ester 8-C)", "5.64 µM"),
    ("C/C=C1\\NC(=O)[C@H](Cc2ccc(F)c(F)c2)NC(=O)[C@@H](C(C)C)NC(=O)[C@@H]([C@@H](C)CC)NC(=O)[C@H](NC(=O)[C@H](NC(=O)[C@H](CCCN)NC(=O)[C@H]2CCCN2C(=O)[C@H](NC(=O)[C@@H](NC(=O)[C@@H](NC(=O)[C@H](NC(=O)CCCC(C)C)C(C)C)[C@@H](C)O)C(C)C)C(C)C)[C@@H](C)CC)[C@@H](C)OC(=O)[C@H](C(C)C)NC1=O [Compound 84, [Phe(3,4-F2)^3]-KF]", "0.848 µM"),
]

###

# System: SK-MEL-28
# EXPERIMENT: SRB colorimetric assay of cell growth and viability, SK-MEL-28
# Type: cell-based, human
# CONDITION_DESCRIPTION: 48 hours exposure, SRB; read-out: LC50 MEL-28
MEASUREMENT_NAME: CC50

# MOLECULE, RESULT
records = [
    ("C/C=C1\\NC(=O)[C@H](Cc2ccc([N+](=O)[O-])cc2)NC(=O)[C@@H](C(C)C)NC(=O)[C@@H]([C@@H](C)CC)NC(=O)[C@H](NC(=O)[C@H](NC(=O)[C@H](CCCN)NC(=O)[C@H]2CCCN2C(=O)[C@H](NC(=O)[C@@H](NC(=O)[C@@H](NC(=O)[C@H](NC(=O)CC[C@@H](C)CC)C(C)C)[C@@H](C)O)C(C)C)C(C)C)[C@@H](C)CC)[C@@H](C)OC(=O)[C@H](C(C)C)NC1=O [Compound 73, [Phe(4-NO2)^3, (4S)-MeHex^14]-KF]", "1480 nM"),
]

###

molecules and their reported log10 of CC50
# Tested on: A-549
# EXPERIMENT: SRB colorimetric assay of cell growth and viability, A-549
# Format: cell-based, human
# CONDITION_DESCRIPTION: 48 hours exposure; read-out: LC50 A-549
Where a SMILES comes first, the peptide text is derived from it. Bridges are numbered along the chain shown (N, C = ends). [ ]: non-standard residue; d: D form. The star is where a group is joined. d(aIle) = CC[C@H](C)[C@@H](N)C(=O)O; d(aThr) = C[C@@H](O)[C@@H](N)C(=O)O; Hexanoyl(5-Me) = CC(C)CCCC(=O)*; dCha = N[C@H](CC1CCCCC1)C(=O)O; Orn = NCCC[C@H](N)C(=O)O; Dhb = C/C=C(\N)C(=O)O
MEASUREMENT_NAME: log10 of CC50 (log10 of the value in µM)

# MOLECULE, log10 of CC50
records = [
    ("C/C=C1\\NC(=O)[C@H](Cc2ccccc2)NC(=O)[C@@H](CC2CCCCC2)NC(=O)[C@@H](CC2CCCCC2)NC(=O)[C@H](NC(=O)[C@@H](CC2CCCCC2)NC(=O)[C@H](CCCN)NC(=O)[C@H]2CCCN2C(=O)[C@H](NC(=O)[C@@H](NC(=O)[C@@H](NC(=O)[C@H](NC(=O)CCCC(C)C)C(C)C)[C@@H](C)O)C(C)C)C(C)C)[C@@H](C)OC(=O)[C@H](C(C)C)NC1=O [Compound 11, [D-Cha^4, D-Cha^5, D-Cha^7]-KF] ({Hexanoyl(5-Me)}-[dV]TV[dV][dP][Orn][dCha][d(aThr)][dCha][dCha]F[Dhb]V; ester 8-C)", -0.29),
    ("C/C=C1\\NC(=O)[C@H](Cc2ccccc2)NC(=O)[C@@H](C(C)C)NC(=O)[C@@H](C(C)CC)NC(=O)[C@H](NC(=O)[C@H](NC(=O)[C@H](CCCN)NC(=O)[C@H]2CCCN2C(=O)[C@H](NC(=O)[C@@H](NC(=O)[C@@H](NC(=O)[C@H](NC(=O)CCC(C)CC)C(C)C)C(C)O)C(C)C)C(C)C)C(C)CC)C(C)OC(=O)[C@H](C(C)C)NC1=O (stereo partly drawn) [Compound 1]", 0.67),
    ("C/C=C1\\NC(=O)[C@H](Cc2ccccc2)NC(=O)[C@@H](C(C)C)NC(=O)[C@@H]([C@@H](C)CC)NC(=O)[C@H](NC(=O)[C@H](NC(=O)[C@H](CCCN)NC(=O)[C@H]2CCCN2C(=O)[C@H](NC(=O)[C@@H](NC(=O)[C@@H](NC(=O)[C@@H](NC(=O)CCCC(C)C)C(C)C)[C@@H](C)O)C(C)C)C(C)C)[C@@H](C)CC)[C@@H](C)OC(=O)[C@H](C(C)C)NC1=O [Compound 38, [Val^13]-KF]", 0.39),
    ("C/C=C1\\NC(=O)[C@H](Cc2ccccc2)NC(=O)[C@@H](C(C)C)NC(=O)[C@@H]([C@@H](C)CC)NC(=O)[C@H](NC(=O)[C@H](NC(=O)[C@H](CCCN)NC(=O)[C@H]2CCCN2C(=O)[C@H](NC(=O)[C@@H](NC(=O)[C@@H](NC(=O)[C@H](NC(=O)CCCNC(=N)N)C(C)C)[C@@H](C)O)C(C)C)C(C)C)[C@@H](C)CC)[C@@H](C)OC(=O)[C@H](C(C)C)NC1=O [Compound 29, [4-GuBut^14]-KF]", 0.83),
    ("C/C=C1\\NC(=O)[C@H](Cc2ccccc2)NC(=O)[C@@H](C(C)C)NC(=O)[C@@H]([C@@H](C)CC)NC(=O)[C@H](NC(=O)[C@H](NC(=O)[C@H](CCCN)NC(=O)[C@H]2CCCN2C(=O)[C@H](NC(=O)[C@H](CC(C)C)NC(=O)[C@@H](NC(=O)[C@H](NC(=O)CCCC(C)C)C(C)C)[C@@H](C)O)C(C)C)[C@@H](C)CC)[C@@H](C)OC(=O)[C@H](C(C)C)NC1=O [Compound 45, [Leu^11]-KF] ({Hexanoyl(5-Me)}-[dV]TL[dV][dP][Orn][d(aIle)][d(aThr)][d(aIle)][dV]F[Dhb]V; ester 8-C)", 0.59),
    ("C/C=C1\\NC(=O)[C@H](Cc2ccccc2)NC(=O)[C@@H](C(C)C)NC(=O)[C@@H]([C@@H](C)CC)NC(=O)[C@H](NC(=O)[C@H](NC(=O)[C@H](CCCN)NC(=O)[C@H]2CCCN2C(=O)[C@H](NC(=O)[C@@H](NC(=O)[C@@H](NC(=O)[C@H](NC(=O)C(F)(F)C(F)(F)C(F)(F)C(F)(F)C(F)(F)C(F)(F)F)C(C)C)[C@@H](C)O)C(C)C)C(C)C)[C@@H](C)CC)[C@@H](C)OC(=O)[C@H](C(C)C)NC1=O [Compound 26, [Pfh^14]-KF]", 0.50),
]
